B1: Ankyrin-1, residues 1405 to 1484; numbered along this chain, P16157 (parent)
chain: MKMAVISEHLGLSWAELARELQFSVEDINRIRVENPNSLLEQSVALLNLWVIREGQNANMENLYTALQSIDRGEIVNMLE

# Variants of: B1
# METHOD SUMMARY: abundance fitness (aPCA) (normalised: wild type 0, dead -1); higher = more abundant; growth selection in yeast, the domain comes from the species named
# SETUP CONDITIONS: Homo sapiens
Hi all, reminder that labels come from abundance fitness, split as bucket A (below -0.3), bucket B (-0.3 to below -0.1), bucket C (-0.1 or more)

Please review the entries below; each comes with its answer.
{"columns": ["SEQUENCE RECORD", "CLASS LABEL"],
 "data": [
  ["MKMAVISEHLGLSWAELARELQFSVEDINRIRVENPNSLLEQSVALLNLWVIREGQNANMENLYTWLQSIDRGEIVNMLE [A66W]", "bucket A"],
  ["MKMAVISEHLGLSWAELARELQFSVEDINRIRVENPNSLLETSVALLNLWVIREGQNANMENLYTALQSIDRGEIVNMLE [Q42T]", "bucket A"],
  ["MKMAVISEHLGLSWAELARELQFSVEDINRIRVENPNSLLEQSCALLNLWVIREGQNANMENLYTALQSIDRGEIVNMLE [V44C]", "bucket C"]
]}

Into which category would you place MKMAVISEHLGLSWAELARELQFSVEDINRIRVENPNSLLEQSVALLNLWVIREGCNANMENLYTALQSIDRGEIVNMLE [Q56C] ?
bucket B

Bin? MKMAVISEHLGLSWAELARELQFSVEDINRIRVENPNSLLEQSVALLNLWVIREGQNANMENLYTALQSIDRQEIVNMLE [G73Q]
bucket B

Band of MKMAVISEHLGLSWAELARELQFSVEDINRIRVENPNSLLEQSVALPNLWVIREGQNANMENLYTALQSIDRGEIVNMLE [L47P] ?
bucket A

Kindly identify the class of MKMAVISEHLGLSWAELARELQFSVEDTNRIRVENPNSLLEQSVALLNLWVIREGQNANMENLYTALQSIDRGEIVNMLE [I28T] .
bucket A

Bin? MKMAVISEHLGLSWAELARELQFKVEDINRIRVENPNSLLEQSVALLNLWVIREGQNANMENLYTALQSIDRGEIVNMLE [S24K]
bucket B

Dear colleague, I would appreciate it if you could identify the bin for MKMAVISEHLGLSWAELARELQFSVEDINRIRVENPNSLLEQSVALLNLWVIREGQNANMENLYTALDSIDRGEIVNMLE [Q68D] and reply at your convenience.
bucket B

Textbook exercise: identify the category of the variant given here, MKMAVISEHLGLSWAELARELQFSVEDINRIRVENPNSLLESSVALLNLWVIREGQNANMENLYTALQSIDRGEIVNMLE [Q42S] , according to its measured value.
bucket A

The entry to classify is MKMAVISEHLGLSWAELARELQFSVEDINRIRVENPNSLLEQSVALLNLWVIREGQCANMENLYTALQSIDRGEIVNMLE [N57C] ; which class holds it?
bucket B

Kindly state the category for this variant: MKMAVISEHLGLSWAELARELQFSVEDINRIRVENPNSLLEQSVALLNLWVIREGQNANMENLYTALQSIQRGEIVNMLE [D71Q]
bucket B

Pick a category. Item: MKMAVISEHLGLSWAELARELQFSVEDINRIRVENPNSLLEQSVALLNLWVIREGQNANMENLYTALQSIDRGPIVNMLE [E74P]
bucket B

The entry to classify is MKMAVISEHLGLSWAELARELQKSVEDINRIRVENPNSLLEQSVALLNLWVIREGQNANMENLYTALQSIDRGEIVNMLE [F23K] ; which class holds it?
bucket A

Lab note: which band did MKMAVISEHLGLSWAELARELQFSVEDINRIRVENPNSLLEQSVALLNLWVIREGQNANMENLYTKLQSIDRGEIVNMLE [A66K] land in?
bucket B

Dear colleague, I would appreciate it if you could identify the bin for MKMAVISEHLGLSWAELARELQFSVEDINRIRVENPNSLLEQSVALLNLWVIREWQNANMENLYTALQSIDRGEIVNMLE [G55W] and reply at your convenience.
bucket A

// return the class label for MKMAVISEHLGLSWAELARELQFSVEDINRIRVENPNSLLEQSVALLNLWVIREGQNANMERLYTALQSIDRGEIVNMLE [N62R]
bucket C
